Assay summary: Plasma pharmacokinetics, single ascending dose
Format: in vivo, human
Test context: human, plasma, oral, 800 mg
Metric: MRT (h)
The reply should contain only the number, in h.

Exam item: Consider the compound shown here: N#CN1C[C@H](n2nc(-c3ccc(Oc4ccc(Cl)cn4)cc3)c(C(N)=O)c2N)CCC12CC2 [SN1011] What is its recorded MRT?
Marked response: 31.1

---

Assay summary: Plasma pharmacokinetics, single ascending dose
Format: in vivo, human
Test context: human, plasma, oral, 600 mg
Metric: half-life (h)
Please respond with the number in h and leave the unit unwritten.

Exam item: Which half-life value belongs to N#CN1C[C@H](n2nc(-c3ccc(Oc4ccc(Cl)cn4)cc3)c(C(N)=O)c2N)CCC12CC2 [SN1011] ?
Marked response: 19.1

---

Assay summary: Plasma pharmacokinetics, single ascending dose
Format: in vivo, human
Test context: human, plasma, oral, 200 mg
Metric: Tmax (h)
Give the value in h but do not write h after it.

Exam item: Entry "N#CN1C[C@H](n2nc(-c3ccc(Oc4ccc(Cl)cn4)cc3)c(C(N)=O)c2N)CCC12CC2" has what Tmax?
Marked response: 3

---

Assay summary: Plasma pharmacokinetics, single ascending dose
Assay type: in vivo, human
Test context: human, plasma, oral, 200 mg, AUC0-t, SAD 200 mg; mean ± SD
Metric: AUC(0-t) (ng·h/mL)
Form entry: value (ng·h/mL) — number only.

Exam item: Requested read-out: AUC(0-t). Entry: "N#CN1C[C@H](n2nc(-c3ccc(Oc4ccc(Cl)cn4)cc3)c(C(N)=O)c2N)CCC12CC2"
Marked response: 4700

---

Assay summary: Plasma pharmacokinetics, multiple ascending doses
Format: in vivo, human
Test context: human, plasma, oral, 400 mg
Metric: Vd/F (L)
I only need the number, in L, no unit after it.

Exam item: What value of Vd/F has been reported for the following compound? N#CN1C[C@H](n2nc(-c3ccc(Oc4ccc(Cl)cn4)cc3)c(C(N)=O)c2N)CCC12CC2 [SN1011]
Marked response: 736

---

Assay summary: Plasma pharmacokinetics, multiple ascending doses
Format: in vivo, human
Test context: human, plasma, oral, 400 mg
Metric: AUC
Could you give the number and then its unit, please?

Exam item: Give the measured AUC of "N#CN1C[C@H](n2nc(-c3ccc(Oc4ccc(Cl)cn4)cc3)c(C(N)=O)c2N)CCC12CC2" .
Marked response: 15200 ng·h/mL

---

Assay summary: Plasma pharmacokinetics, single ascending dose
Assay type: in vivo, human
Test context: human, plasma, oral, 100 mg
Metric: MRT (h)
Output spec: scalar in h, unitless text.

Exam item: # get_value(readout='MRT', item= "N#CN1C[C@H](n2nc(-c3ccc(Oc4ccc(Cl)cn4)cc3)c(C(N)=O)c2N)CCC12CC2" )
Marked response: 26.4

---

Assay summary: Plasma pharmacokinetics, multiple ascending doses
Type: in vivo, human
Test context: human, plasma, oral, 200 mg, AUC0-t, MAD 200 mg q.d., Day 1; mean ± SD
Metric: AUC(0-t) (ng·h/mL)
Value expressed in ng·h/mL; do not type the unit.

Exam item: For the compound shown here, "N#CN1C[C@H](n2nc(-c3ccc(Oc4ccc(Cl)cn4)cc3)c(C(N)=O)c2N)CCC12CC2" , give the reported AUC(0-t).
Marked response: 4280

---

Assay summary: Plasma pharmacokinetics, multiple ascending doses
Type: in vivo, human
Test context: human, plasma, oral, 600 mg, AUC0-t, MAD 600 mg q.d., Day 10; mean ± SD
Metric: AUC(0-t)
Hey, just the number and the unit after it is fine.

Exam item: Query: AUC(0-t); subject: "N#CN1C[C@H](n2nc(-c3ccc(Oc4ccc(Cl)cn4)cc3)c(C(N)=O)c2N)CCC12CC2"
Marked response: 40300 ng·h/mL
